IC50 by entry:
Target: human TLR2 (Homo sapiens, UniProt O60603)
Construct: host or cells: HEK-Blue hTLR2 (HEK-293)
Sequence (O60603 21-784): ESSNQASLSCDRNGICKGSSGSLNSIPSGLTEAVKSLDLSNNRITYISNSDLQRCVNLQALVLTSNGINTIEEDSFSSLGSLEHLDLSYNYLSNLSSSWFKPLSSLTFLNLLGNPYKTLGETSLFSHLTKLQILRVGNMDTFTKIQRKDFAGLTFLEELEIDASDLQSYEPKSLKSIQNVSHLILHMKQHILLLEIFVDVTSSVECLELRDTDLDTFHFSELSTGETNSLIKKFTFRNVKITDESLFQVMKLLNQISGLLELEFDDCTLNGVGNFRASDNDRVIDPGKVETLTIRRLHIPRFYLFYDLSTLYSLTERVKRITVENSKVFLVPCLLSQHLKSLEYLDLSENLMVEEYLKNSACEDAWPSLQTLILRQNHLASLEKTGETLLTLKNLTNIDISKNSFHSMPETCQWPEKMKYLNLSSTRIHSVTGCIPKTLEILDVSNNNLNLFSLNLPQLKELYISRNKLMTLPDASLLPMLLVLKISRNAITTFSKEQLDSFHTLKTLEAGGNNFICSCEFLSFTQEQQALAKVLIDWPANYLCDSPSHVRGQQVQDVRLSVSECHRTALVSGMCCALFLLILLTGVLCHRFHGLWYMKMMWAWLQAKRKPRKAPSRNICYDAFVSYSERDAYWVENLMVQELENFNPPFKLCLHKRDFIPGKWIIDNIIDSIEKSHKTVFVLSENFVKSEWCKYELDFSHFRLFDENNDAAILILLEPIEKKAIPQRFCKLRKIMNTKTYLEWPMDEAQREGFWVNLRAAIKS
Test: HEK-Blue hTLR2 antagonism assay (SEAP reporter) with agonist Pam2CSK4 (TLR2/6 agonist)
Type: cell-based
Settings: Table A; HEK-Blue hTLR2 cells, ~3×EC50 Pam2CSK4, 18 h, SEAP OD 655 nm, 8-point dilutions
Experimental: Synthetic diacylated lipoprotein (Pam2CSK4, TLR2/6 agonist) and synthetic triacylated lipoprotein (Pam3CSK4, TLR1/2 agonist) were obtained from InvivoGen and were dissolved in endotoxin-free water to a concentration 1 mg/mL, vortexed until complete solubilization, and stored in aliquots at −20° C. […] On day 2, secreted alkaline phosphatase (SEAP) activity was detected in cell culture supernatants. […] IC50 values were calculated based on 8-point dilutions for each compound.
Readout Label: IC50

Cc1cc(-c2cnn(-c3ccccc3)c2)cc(C#N)c1O; > 100 µM
COc1cc(-c2cnn(-c3ccccc3)c2)cc(O)c1F; > 100 µM
COc1cc(-c2cnn(C3CCOCC3)c2)cc(C=O)c1O; > 100 µM

----------
Target: human TLR9 (Homo sapiens, UniProt Q9NR96)
Construct: host or cells: HEK-Blue hTLR9 (HEK-293)
Sequence (Q9NR96 26-1032): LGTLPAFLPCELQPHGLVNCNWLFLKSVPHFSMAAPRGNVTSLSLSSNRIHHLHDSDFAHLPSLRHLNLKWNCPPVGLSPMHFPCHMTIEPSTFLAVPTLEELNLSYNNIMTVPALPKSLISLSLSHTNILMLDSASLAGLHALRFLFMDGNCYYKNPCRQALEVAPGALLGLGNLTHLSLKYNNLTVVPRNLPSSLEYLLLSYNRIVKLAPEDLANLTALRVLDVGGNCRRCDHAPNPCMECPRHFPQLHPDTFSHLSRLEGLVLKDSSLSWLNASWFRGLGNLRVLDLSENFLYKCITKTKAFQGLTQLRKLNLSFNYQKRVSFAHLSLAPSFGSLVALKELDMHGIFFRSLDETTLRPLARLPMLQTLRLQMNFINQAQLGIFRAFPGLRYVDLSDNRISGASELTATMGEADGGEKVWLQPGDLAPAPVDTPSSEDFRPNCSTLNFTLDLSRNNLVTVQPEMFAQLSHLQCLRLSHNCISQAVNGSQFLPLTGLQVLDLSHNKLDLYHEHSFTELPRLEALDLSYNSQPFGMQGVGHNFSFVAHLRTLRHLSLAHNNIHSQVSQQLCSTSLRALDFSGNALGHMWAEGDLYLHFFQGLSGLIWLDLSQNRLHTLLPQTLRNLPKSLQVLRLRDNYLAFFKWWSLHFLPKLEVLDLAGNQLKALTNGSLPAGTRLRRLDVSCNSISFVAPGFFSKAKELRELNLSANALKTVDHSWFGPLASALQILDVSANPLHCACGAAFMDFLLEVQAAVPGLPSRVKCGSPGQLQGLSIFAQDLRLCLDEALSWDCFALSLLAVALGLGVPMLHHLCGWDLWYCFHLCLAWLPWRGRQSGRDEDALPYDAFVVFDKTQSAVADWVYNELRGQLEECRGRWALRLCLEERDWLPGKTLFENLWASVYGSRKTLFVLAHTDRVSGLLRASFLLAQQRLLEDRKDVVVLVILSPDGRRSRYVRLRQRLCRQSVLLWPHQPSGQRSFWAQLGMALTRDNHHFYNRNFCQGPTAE
Experiment: HEK-Blue hTLR9 assay (SEAP reporter) with agonist ODN 2006
Assay type: cell-based
Conditions: Table B; HEK-Blue hTLR9 cells, ~3×EC50 ODN 2006, 18 h; exact values 8-point dilutions, approximate (~ or <) 4-point dilutions; read-out: ~IC50 (μM) with ODN2006
Readout Label: IC50

O=Cc1c(O)cc(C#Cc2ccc(N3CCCC3)cc2)cc1F; ~1.5 µM
O=Cc1cc(C(=O)Nc2cccc(N3CCCC3)c2)cc(F)c1O; ~2.5 µM
O=Cc1cc(C#Cc2ccc(N3CCCC3)cc2)cc(F)c1O; < 1.2 µM

----------
Biological target: human TLR2 (Homo sapiens, UniProt O60603)
Construct: host or cells: HEK-Blue hTLR2 (HEK-293)
Assay: HEK-Blue hTLR2 antagonism assay (SEAP reporter) with agonist Pam3CSK4 (TLR1/2 agonist)
Assay type: cell-based
Conditions: Table A; HEK-Blue hTLR2 cells, ~3×EC50 Pam3CSK4, 18 h, SEAP OD 655 nm, 8-point dilutions
Mark each entry label 1 if its IC50 sits below 1 µM, and label 0 for all others.

COc1cc(-c2cnn(Cc3ccccn3)c2)cc(C=O)c1O; label 0
Oc1c(F)cc(-c2cnn(-c3ccc(N4CCCC4)cc3)c2)cc1/C=N/Oc1ccccc1; label 0
O=Cc1cc(-c2csc(-c3ccc(N4CCCC4)cc3)c2)cc(F)c1O; label 1
O=Cc1cc(-c2cnn(-c3cccc(N4CCOCC4)c3)c2)cc(F)c1O; label 0
COc1cc(-c2cnn(-c3ccccc3)c2)cc(O)c1F; label 0
COc1cc(-c2cnn(-c3cccc(C(F)(F)F)c3)c2)cc(C=O)c1O; label 0
Oc1c(F)cc(-c2cnn(-c3ccccc3)c2)cc1Cl; label 0
O=Cc1cc(-c2cnc(-c3ccc(N4CCCC4)cc3)s2)ncc1O; label 1
Cc1cc(-c2cnn(-c3ccccc3)c2)cc(C#N)c1O; label 0
COc1ccc(Cn2cc(-c3cc(C=O)c(O)c(OC)c3)cn2)cc1; label 0
Cc1nc(-c2cccc(N3CCCC3)c2)sc1-c1cc(F)c(O)c(C=O)c1; label 0
CC(=O)N/N=C/c1cc(-c2cnn(-c3ccc(N4CCCC4)cc3)c2)cc(F)c1O; label 1
O=Cc1cc(-c2cnc(-c3ccccc3)o2)cc(F)c1O; label 0
